Target: MAGE-A1 target antigen peptide … presented by HLA-A*02:01 on cells (human)
Assay: cell-based or functional assay
# EC50 Value (M), JKR9 reporter activation by peptide-loaded T2 cells annotations
TEST_READOUT: EC50 Value (M), JKR9 reporter activation by peptide-loaded T2 cells

BINDER | EXPERIMENTAL_VALUE
ht27M1012 (TCR, V domains shown) Valpha: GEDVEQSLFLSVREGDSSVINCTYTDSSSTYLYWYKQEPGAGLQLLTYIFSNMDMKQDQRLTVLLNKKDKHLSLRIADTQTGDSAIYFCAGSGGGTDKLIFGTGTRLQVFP Vbeta: GAVVSQHPSWVICKSGTSVKIECRSLDFQATTMFWYRQFPKQSLMLMATSNEGSKATYEQGVEKDKFLINHASLTLSTLTVTSAHPEDSSFYICSAREPGGGPFEQYFGPGTRLTVT | 2.61e-08
ht27M1378 (TCR, V domains shown) Valpha: GEDVEQSLFLSVREGDSSVINCTYADYLSTYLYWYKQEPGAGLQLLTYIFSNMDMKQDQRLTVLLNKKDKHLSLRIADTQTGDSAIYFCAGSGGGTDKLIFGTGTRLQVFP Vbeta: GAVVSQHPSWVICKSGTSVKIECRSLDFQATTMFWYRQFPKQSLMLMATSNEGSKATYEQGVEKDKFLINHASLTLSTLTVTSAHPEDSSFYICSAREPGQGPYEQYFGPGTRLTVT | 7.4e-08
